Molecular target: T1, cyIL1RAP-His (Lake Pharma) (cynomolgus monkey, UniProt A0A2K5X5J5 21-367)
T1 construct: Bought protein (Lake Pharma, lot 16205819371); also called cynomolgus IL1RAP; monkey IL1RAP; not shown: His tag
T1 sequence: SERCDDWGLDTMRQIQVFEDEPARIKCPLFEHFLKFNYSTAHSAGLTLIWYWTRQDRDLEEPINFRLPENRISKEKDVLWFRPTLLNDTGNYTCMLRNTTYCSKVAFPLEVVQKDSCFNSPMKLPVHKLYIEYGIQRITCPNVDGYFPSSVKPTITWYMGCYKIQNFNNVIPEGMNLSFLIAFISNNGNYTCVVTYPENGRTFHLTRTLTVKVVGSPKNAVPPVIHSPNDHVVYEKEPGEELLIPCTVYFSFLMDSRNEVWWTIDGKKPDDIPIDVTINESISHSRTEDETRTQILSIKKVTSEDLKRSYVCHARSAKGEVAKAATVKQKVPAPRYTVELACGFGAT
Assay: Octet BLI; mAb captured on anti-mouse IgG Fc sensor; cyIL1RAP-His analyte
quantity-measured: koff (s⁻¹)
The figure you give is taken to be in s⁻¹; do not add the unit.

Q) Given the binder STLX2029 (antibody, V domains shown, Purified from hybridoma of immunized Alivamab mice; intact IgG; captured on anti-mouse IgG Fc sensors in Octet; kappa light chain; also called 74804_29D13A) VH: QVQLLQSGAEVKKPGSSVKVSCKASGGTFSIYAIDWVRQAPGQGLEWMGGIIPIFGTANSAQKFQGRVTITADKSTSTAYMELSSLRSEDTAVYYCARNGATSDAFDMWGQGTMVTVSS VL: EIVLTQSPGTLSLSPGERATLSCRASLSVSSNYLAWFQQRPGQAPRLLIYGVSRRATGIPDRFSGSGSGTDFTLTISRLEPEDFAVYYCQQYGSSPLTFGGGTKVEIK , what is its reported koff?
A) 0.00065
